From: the kinase profiling compilation of Christmann-Franck et al. (2016)

# tested.on: CSK (human)
# run.description: radiometric filter-binding kinase assay
# measurement.parameters: compound 10.0 µM
endpoint: residual activity (%)

compound	endpoint	measurement.units	endpoint.result
FC(F)(F)c1ccc(-c2ccc(Oc3cncc4sc(-c5nn[nH]n5)cc34)cc2)cc1	residual activity	%	95
NC(=O)c1cc2c(-c3cccc(-c4ccccc4)c3)cnc(N)c2s1	residual activity	%	58
CCCCCc1ccc(/C=C/[C@H](O)[C@@H](CO)NC)cc1	residual activity	%	98

A = Cc1ccc(Sc2cnc(Nc3cccc(Br)n3)s2)cc1C(=O)N1CCN(C(=O)CN)CC1
B = NC(=O)c1cc(-c2ccnc(NC3CCCCC3)c2)nc(N2CCNCC2)c1
Between A and B , which one shows the larger residual activity value? # reply format: chosen label
B
(B: 90%, A: 9%)

a = O=C(NOC[C@H](O)CO)c1ccc(F)c(F)c1Nc1ccc(I)cc1Cl
b = NC(=O)Nc1ccc2c(c1)/C(=C/c1cc(-c3cccnc3)c[nH]1)C(=O)N2
Between a and b , which one shows the larger residual activity value? # reply format: chosen label
a
(a: 98%, b: 42%)

I = O=C(NOCC(O)CO)c1ccc(F)c(F)c1Nc1ccc(I)cc1Cl (configuration not stated)
II = COc1ccc2c(c1)c1c3c(c4c5ccccc5n(C)c4c1n2CC(O)CN(C)C)C(=O)NC3=O (configuration not stated)
III = C=CC(=O)N1CCC[C@@H](n2nc(-c3ccc(Oc4ccccc4)cc3)c3c(N)ncnc32)C1
Sort the 3 compounds by residual activity; largest first, smallest last. Dear reader, please state the labels in the requested order.
I, II, III
(I: 88%, II: 58%, III: 3%)

---

# tested.on: MAPK14 (human) (UniProt Q16539)
# Sequence (Q16539 whole entry, looked up): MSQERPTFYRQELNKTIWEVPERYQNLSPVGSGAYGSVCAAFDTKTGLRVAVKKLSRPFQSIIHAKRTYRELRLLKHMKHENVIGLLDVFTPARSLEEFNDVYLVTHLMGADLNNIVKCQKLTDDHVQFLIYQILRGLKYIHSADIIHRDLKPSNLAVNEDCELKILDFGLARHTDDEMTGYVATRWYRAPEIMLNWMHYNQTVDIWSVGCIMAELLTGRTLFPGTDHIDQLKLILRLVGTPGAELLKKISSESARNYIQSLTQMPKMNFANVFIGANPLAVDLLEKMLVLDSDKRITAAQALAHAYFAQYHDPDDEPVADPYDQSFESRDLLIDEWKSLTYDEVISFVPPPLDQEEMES
# run.description: radiometric filter-binding kinase assay
# measurement.parameters: compound 1.0 µM
endpoint: residual activity (%)

> print(dat)
                                   compound  endpoint.result
1  O=C(NOC[C@H](O)CO)c1ccc(F)c(F)c1Nc1ccc(I)cc1Cl               96
2       O=C1NC(=S)N[C@@H]1Cc1c[nH]c2ccccc12               76
3  COc1ccc2c(c1)c1c3c(c4c5ccccc5n(C)c4c1n2CC(O)CN(C)C)C(=O)NC3=O (stereo unspecified)              106
4           Cc1cccc(Nc2nn(C)c3ncnc(N)c23)c1              118

a = Oc1ccc2ccccc2c1SSc1c(O)ccc2ccccc12
b = Cc1cccc(-c2nn(C(=S)Nc3ccccc3)cc2-c2ccnc3ccccc23)n1
Between a and b , which one shows the larger residual activity value? # reply format: chosen label
a

---

# tested.on: MAPK12 (human) (UniProt P53778)
# Sequence (P53778 whole entry, looked up): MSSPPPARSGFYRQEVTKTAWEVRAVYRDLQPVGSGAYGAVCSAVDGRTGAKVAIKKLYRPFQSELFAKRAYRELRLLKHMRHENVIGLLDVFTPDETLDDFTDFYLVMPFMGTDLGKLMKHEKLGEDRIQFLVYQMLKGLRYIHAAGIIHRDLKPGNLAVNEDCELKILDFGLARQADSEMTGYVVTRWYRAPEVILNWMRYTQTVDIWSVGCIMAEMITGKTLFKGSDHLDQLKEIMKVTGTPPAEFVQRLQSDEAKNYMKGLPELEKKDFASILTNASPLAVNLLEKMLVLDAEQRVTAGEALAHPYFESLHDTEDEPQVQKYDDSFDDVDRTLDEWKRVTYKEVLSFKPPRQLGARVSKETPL
# run.description: radiometric filter-binding kinase assay
# measurement.parameters: compound 10.0 µM
endpoint: residual activity (%)

compound	residual activity [%]
CCOC(=O)c1ccc(N2NC(=O)/C(=C/c3ccc([N+](=O)[O-])o3)C2=O)cc1	112
NC(=O)c1ccc(-c2ccc(Oc3cncc4sc(-c5nn[nH]n5)cc34)cc2)cc1	65
O=C(Nc1ccccc1-c1cn2c(CN3CCNCC3)csc2n1)c1cnc2ccccc2n1	92
Cc1cccc(Nc2nn(C)c3ncnc(N)c23)c1	132
O=C(N[C@@H](COc1ccc2[nH]c(=O)[nH]c2c1)c1ccccc1)c1cccn(Cc2ccc(F)c(F)c2)c1=O	105
CCCCCc1ccc(/C=C/[C@H](O)[C@@H](CO)NC)cc1	87

1 = CC1=C(CO)C(=O)O[C@@H]([C@@H](C)[C@H]2CC[C@H]3[C@@H]4C[C@H]5O[C@]56[C@@H](O)C=CC(=O)[C@]6(C)C4CC[C@]23C)C1 (some centres undefined)
2 = NC(=O)c1cc(-c2ccnc(NC3CCCCC3)c2)nc(N2CCNCC2)c1
Between 1 and 2 , which one shows the larger residual activity value? # reply format: chosen label
1
(1: 103%, 2: 58%)

---

# tested.on: BRSK2 (human) (UniProt Q8IWQ3)
# Sequence (Q8IWQ3 whole entry, looked up): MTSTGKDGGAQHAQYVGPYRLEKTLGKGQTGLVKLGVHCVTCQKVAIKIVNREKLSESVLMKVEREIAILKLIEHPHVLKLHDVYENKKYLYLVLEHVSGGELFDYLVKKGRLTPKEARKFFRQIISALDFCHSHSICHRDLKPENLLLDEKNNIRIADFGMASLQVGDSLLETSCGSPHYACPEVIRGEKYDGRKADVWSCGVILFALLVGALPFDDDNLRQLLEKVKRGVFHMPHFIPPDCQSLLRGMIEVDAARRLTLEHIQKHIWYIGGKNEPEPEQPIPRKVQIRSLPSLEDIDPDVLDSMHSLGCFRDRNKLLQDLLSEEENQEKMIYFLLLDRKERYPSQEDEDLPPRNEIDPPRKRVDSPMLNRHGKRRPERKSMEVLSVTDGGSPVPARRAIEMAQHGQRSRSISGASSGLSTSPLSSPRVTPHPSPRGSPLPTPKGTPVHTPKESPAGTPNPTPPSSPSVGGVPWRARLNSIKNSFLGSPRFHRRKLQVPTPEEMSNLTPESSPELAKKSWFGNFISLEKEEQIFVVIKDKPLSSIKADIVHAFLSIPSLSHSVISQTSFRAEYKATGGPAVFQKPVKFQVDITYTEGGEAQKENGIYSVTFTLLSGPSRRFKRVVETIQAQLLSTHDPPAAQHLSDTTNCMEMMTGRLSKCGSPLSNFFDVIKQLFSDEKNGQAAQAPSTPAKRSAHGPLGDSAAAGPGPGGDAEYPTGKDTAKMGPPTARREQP
# run.description: radiometric filter-binding kinase assay
# measurement.parameters: compound 10.0 µM
endpoint: residual activity (%)

Example cases with answers are listed next.
compound	residual activity (%)
O=C(O)c1ccc(-c2c[nH]c3ncc(-c4ccccc4)cc23)cc1C1CCCC1	20
Cn1nc(Nc2ccc(F)cc2)c2c(N)ncnc21	92

I = O=C1NC(=S)N[C@@H]1Cc1c[nH]c2ccccc12
II = NC(=O)Nc1ccc2c(c1)/C(=C/c1cc(-c3cccnc3)c[nH]1)C(=O)N2
III = CCNc1nc(Nc2cc(F)c(C(=O)N3CCOCC3)cc2OC)ncc1C(F)(F)F
IV = C=CC(=O)N1CCC[C@@H](n2nc(-c3ccc(Oc4ccccc4)cc3)c3c(N)ncnc32)C1
Order the records, beginning with the lowest residual activity and ending with the highest. Dear reader, please state the labels in the requested order.
II, III, IV, I

A = Cc1nc(-c2ccc(OCC(C)C)c(C#N)c2)sc1C(=O)O
B = O=c1c(O)c(-c2ccc(O)c(O)c2)oc2cc(O)c(O)c(O)c12
Between A and B , which one shows the larger residual activity value? # reply format: chosen label
A
(A: 86%, B: 13%)

P = O=S(=O)(c1ccc(F)c2nonc12)N1CCN(c2ncc(C(F)(F)F)cc2Cl)CC1
Q = COc1ccc2c(c1)c1c3c(c4c5ccccc5n(C)c4c1n2CC(O)CN(C)C)C(=O)NC3=O (stereo unspecified)
// compare: P vs Q , metric residual activity, want the smaller # reply format: chosen label
Q

I = NS(=O)(=O)OC[C@@H]1C[C@@H](n2ccc3c(N[C@H]4CCc5ccccc54)ncnc32)C[C@@H]1O
II = COc1cc2ncn(-c3cc(OCc4ccccc4S(C)(=O)=O)c(C#N)s3)c2cc1OC
// compare: I vs II , metric residual activity, want the smaller # reply format: chosen label
II
(II: 30%, I: 86%)

---

# tested.on: UniProt Q16644
# Sequence (Q16644 whole entry, looked up): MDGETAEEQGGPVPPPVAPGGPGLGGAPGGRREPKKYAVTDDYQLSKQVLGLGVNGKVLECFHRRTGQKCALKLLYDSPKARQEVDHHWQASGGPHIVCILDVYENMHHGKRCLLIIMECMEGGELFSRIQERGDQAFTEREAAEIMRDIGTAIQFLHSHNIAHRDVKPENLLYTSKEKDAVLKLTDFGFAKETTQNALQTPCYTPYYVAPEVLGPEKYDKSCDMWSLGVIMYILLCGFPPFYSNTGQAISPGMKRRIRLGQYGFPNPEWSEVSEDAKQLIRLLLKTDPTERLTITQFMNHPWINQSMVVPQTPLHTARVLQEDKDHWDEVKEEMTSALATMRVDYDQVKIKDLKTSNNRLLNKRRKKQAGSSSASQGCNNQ
# run.description: radiometric filter-binding kinase assay
# measurement.parameters: compound 1.0 µM
endpoint: residual activity (%)

compound	endpoint.result
CC1=C(CO)C(=O)O[C@@H]([C@@H](C)[C@H]2CC[C@H]3[C@@H]4C[C@H]5O[C@]56[C@@H](O)C=CC(=O)[C@]6(C)C4CC[C@]23C)C1 (stereo not given in full)	85
COc1cc(C(=O)N2CCOCC2)c(F)cc1Nc1ncc(C(F)(F)F)c(NC2CC2)n1	108
Cc1ccc(Sc2cnc(Nc3cccc(Br)n3)s2)cc1C(=O)N1CCN(C(=O)CN)CC1	77
Cc1cc(NC(=O)c2cccc(NC(=O)/C=C/CN(C)C)c2)ccc1Nc1nccc(-c2cccnc2)n1	90
CCCC(CCC)C(=O)O	90

---

# tested.on: UniProt:P16234
# Sequence (P16234 whole entry, looked up): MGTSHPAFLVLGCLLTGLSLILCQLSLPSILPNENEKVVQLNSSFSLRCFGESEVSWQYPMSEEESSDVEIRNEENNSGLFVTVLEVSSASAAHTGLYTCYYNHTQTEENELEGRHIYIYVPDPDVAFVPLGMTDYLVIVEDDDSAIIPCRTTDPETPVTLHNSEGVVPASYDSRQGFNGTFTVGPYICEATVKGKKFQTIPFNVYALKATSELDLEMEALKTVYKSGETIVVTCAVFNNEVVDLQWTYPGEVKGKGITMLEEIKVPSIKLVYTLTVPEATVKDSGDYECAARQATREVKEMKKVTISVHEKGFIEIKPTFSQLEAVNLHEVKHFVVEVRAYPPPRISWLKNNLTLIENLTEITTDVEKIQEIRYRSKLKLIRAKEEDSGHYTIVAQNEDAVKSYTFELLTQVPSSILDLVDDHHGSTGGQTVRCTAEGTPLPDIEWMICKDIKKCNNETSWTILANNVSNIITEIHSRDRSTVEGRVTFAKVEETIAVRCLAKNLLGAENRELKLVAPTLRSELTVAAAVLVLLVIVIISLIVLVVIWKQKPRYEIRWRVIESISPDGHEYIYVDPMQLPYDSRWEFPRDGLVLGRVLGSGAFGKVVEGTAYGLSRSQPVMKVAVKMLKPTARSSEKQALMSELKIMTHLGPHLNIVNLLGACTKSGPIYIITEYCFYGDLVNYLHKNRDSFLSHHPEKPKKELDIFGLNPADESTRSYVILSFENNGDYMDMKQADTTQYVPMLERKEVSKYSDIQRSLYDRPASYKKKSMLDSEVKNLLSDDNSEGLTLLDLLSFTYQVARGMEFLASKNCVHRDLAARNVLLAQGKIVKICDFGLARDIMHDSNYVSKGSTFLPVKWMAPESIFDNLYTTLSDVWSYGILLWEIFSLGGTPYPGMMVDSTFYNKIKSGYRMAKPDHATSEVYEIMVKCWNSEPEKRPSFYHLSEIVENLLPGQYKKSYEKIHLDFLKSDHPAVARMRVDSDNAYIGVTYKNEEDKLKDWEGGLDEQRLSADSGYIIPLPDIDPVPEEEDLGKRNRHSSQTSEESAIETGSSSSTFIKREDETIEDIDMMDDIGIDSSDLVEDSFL
# run.description: radiometric filter-binding kinase assay
# measurement.parameters: compound 0.1 µM
endpoint: residual activity (%)

Example cases with answers are listed next.
> print(dat)
                                   molecule           endpoint  endpoint.result
1    CCn1c(-c2nonc2N)nc2cncc(CNC3CCNCC3)c21  residual activity              120
2  CN1CCN(CCOc2cc(OC3CCOCC3)c3c(Nc4c(Cl)ccc5c4OCO5)ncnc3c2)CC1  residual activity              101

P = Cc1ccc(-c2ccc3c(ccc4sc5c(c43)NC[C@@H](C)NC5=O)n2)cn1
Q = CNC(=O)C1[C@H]2O[C@@](C)([C@@H]1N)n1c3ccccc3c3c4c(c5c6ccccc6n2c5c31)C(=O)NC4 (some centres undefined)
Between P and Q , which one shows the larger residual activity value? # reply format: chosen label
P
(P: 104%, Q: 8%)

---

# tested.on: MAPK11 (human) (UniProt Q15759)
# Sequence (Q15759 whole entry, looked up): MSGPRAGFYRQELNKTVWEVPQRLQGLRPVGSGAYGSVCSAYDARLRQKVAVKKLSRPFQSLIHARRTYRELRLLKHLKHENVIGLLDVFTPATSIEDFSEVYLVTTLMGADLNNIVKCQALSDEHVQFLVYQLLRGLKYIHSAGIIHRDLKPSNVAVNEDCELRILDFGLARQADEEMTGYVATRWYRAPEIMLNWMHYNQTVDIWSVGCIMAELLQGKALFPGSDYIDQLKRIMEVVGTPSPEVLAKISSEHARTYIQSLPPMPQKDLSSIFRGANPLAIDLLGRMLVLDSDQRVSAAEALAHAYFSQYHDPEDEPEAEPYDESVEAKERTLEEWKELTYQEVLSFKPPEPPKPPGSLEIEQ
# run.description: radiometric filter-binding kinase assay
# measurement.parameters: compound 0.1 µM
endpoint: residual activity (%)

> print(dat)
                                   compound                        tested.on           endpoint  measurement.units  endpoint.result
1  COc1cc(O)c2c(c1)/C=C/C[C@H](O)[C@H](O)C(=O)/C=C\C[C@H](C)OC2=O  MAPK11 (human) (UniProt Q15759)  residual activity                  %               90
2  O=C(N[C@@H](COc1ccc2[nH]c(=O)[nH]c2c1)c1ccccc1)c1cccn(Cc2ccc(F)c(F)c2)c1=O  MAPK11 (human) (UniProt Q15759)  residual activity                  %              100
3  NC(=O)c1cc(-c2ccnc(NC3CCCCC3)c2)nc(N2CCNCC2)c1  MAPK11 (human) (UniProt Q15759)  residual activity                  %               99
4                Cn1c(=O)c2c(ncn2C)n(C)c1=O  MAPK11 (human) (UniProt Q15759)  residual activity                  %              107
5  COc1ccc2c(c1)c1c3c(c4c5ccccc5n(C)c4c1n2CC(O)CN(C)C)C(=O)NC3=O (stereo not given)  MAPK11 (human) (UniProt Q15759)  residual activity                  %              119
